target: UniProt:P18841; assay: The compound was tested for binding affinity against Alpha-1B adrenergic receptor, from hamster clones.
measured-endpoint: pKi
Schema: pKi number; meaning minus log10 of the concentration expressed in molar units.

Name the reported pKi value associated with the molecule O=C(NC1CCN(CCc2c[nH]c3ccccc23)CC1)c1ccccc1 7.60

###

target: Alpha-1B adrenergic receptor (Mesocricetus auratus) (UniProt P18841); assay: Binding affinity against Alpha-1B adrenergic receptor from hamster clones.
Sequence (P18841 whole entry, looked up): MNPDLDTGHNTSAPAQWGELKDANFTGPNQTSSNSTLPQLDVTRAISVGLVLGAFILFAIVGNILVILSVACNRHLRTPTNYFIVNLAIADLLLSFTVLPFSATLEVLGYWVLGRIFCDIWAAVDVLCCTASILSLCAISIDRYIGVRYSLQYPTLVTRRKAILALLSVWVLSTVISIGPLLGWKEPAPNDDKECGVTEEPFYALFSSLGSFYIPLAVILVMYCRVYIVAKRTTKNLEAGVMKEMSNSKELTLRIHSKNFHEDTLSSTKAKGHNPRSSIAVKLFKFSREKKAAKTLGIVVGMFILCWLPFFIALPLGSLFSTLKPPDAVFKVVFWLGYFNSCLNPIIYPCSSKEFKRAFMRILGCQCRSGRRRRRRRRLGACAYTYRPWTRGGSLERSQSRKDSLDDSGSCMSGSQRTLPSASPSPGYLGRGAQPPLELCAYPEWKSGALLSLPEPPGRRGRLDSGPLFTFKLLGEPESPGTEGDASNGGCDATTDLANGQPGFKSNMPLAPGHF
measured-endpoint: pKi
Entry type: numeric. Quantity: pKi, the -log10 of concentration in molar units.

Form field: reported pKi of COc1cc2nc(N(C)CCCNC(=O)C3CCCO3)nc(N)c2cc1OC (configuration not stated) 7.92

Please do the same for COc1cc2c(cc1OC)CN(c1cc(N)c3cc(OC)c(OC)cc3n1)CC2 as well. 9.96
